Origin of values: patent US20050256171A1

compounds and their reported pKiapp
molecular target: human tryptase; assay: Inhibition of human tryptase (apparent dissociation constant, chromogenic substrate tos-Gly-Pro-Arg-pNA); assay type: biochemical; conditions: pKiapp = -log Kiapp (mol/l); in the presence of substrate; heparin 0.1-50 μg/ml
Structures can show the parent of a compound that is named as a salt.
readout label: pKiapp

[[record]]
compound = "COC(=O)Cc1cc(C#CCOC(=O)NCc2ccnc(N)c2)cc(C#CCOC(=O)NC2CC(C(=O)OC)N(C(=O)CCc3ccc(CN)cc3)C2)c1 (stereo not shown) [Compound 5, dihydrochloride]"
readout_label = "pKiapp"
measurement = 6.00

[[record]]
compound = "COC(=O)Cc1cc(C#CCOC(=O)NCc2ccc(N)nc2)cc(C#CCOC(=O)NC2CC(C(=O)OC)N(C(=O)CCc3ccc(CN)cc3)C2)c1 (stereo not shown) [Compound 4, dihydrochloride]"
readout_label = "pKiapp"
measurement = 6.57

[[record]]
compound = "COC(=O)Cc1cc(C#CCOC(=O)NCc2ccnc(N)c2)cc(C#CCOC(=O)NC2CC(C(=O)OC)N(C(=O)CCc3cccc(CN)c3)C2)c1 (stereo not shown) [Compound 6, dihydrochloride]"
readout_label = "pKiapp"
measurement = 7.19

[[record]]
compound = "COC(=O)Cc1cc(C#CCOC(=O)NCc2ccc(N)nc2)cc(C#CCOC(=O)NC2CC(C(=O)OC)N(C(=O)CCc3cccc(CN)c3)C2)c1 (stereo not shown) [Compound 3, dihydrochloride]"
readout_label = "pKiapp"
measurement = 7.80

